# Test system: K4 kissing-loop RNA reporter;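 note: bound reporter read as fluorescence of individual clusters on recovered sequencing chips by microscopy, with normalized cluster intensities fitted with a binding model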
# procedure_text: apparent KD of K4 kissing-loop reporter; higher = weaker reporter binding
# condition_notes: Eterna round: R107; input ligand: tryptophan 2.4 mM
measurement_label: apparent KD of K4 kissing-loop reporter (nM)
Note: unit nM is implicit; provide only the numeric part.

**Q:** Provide apparent KD of K4 kissing-loop reporter value for the following sequence: AAAAUAAACCAGUGAUGUUGGUGUCUGGAUACCAGCGACGAAAGUCGCCCUUGGCAGCUACGGACGUACAAAAUAAGUACGUCCU [MatMod 8 - Jieux - Same State - Theophylline A]
**A:** 561

**Q:** Provide apparent KD of K4 kissing-loop reporter value for the following sequence: UGACUGGACUGAAGGAGCGCUGAACUCCUAGUGAUGUUAGGAAAACGAGACAAAGUCUCGAAGCAGGUAGGUCGCAGUCUAGUCU
**A:** 115

**Q:** Provide apparent KD of K4 kissing-loop reporter value for the following sequence: CGUAGUUGGGCGGCCGCCACUUGAACAGCUUUGCCAAAGGCAGAGCUCUAGAGUGAUGUUCUGGCAAGGACCGGGUCCAACUACA [#02 K4 Tryptophan B Same State]
**A:** 423

Origin of values: the supplement of paper PMC9170038
